Assay: Ampicillin blood level after injection with galenical extract or isolated saponin into rat duodenal loop (Experimental method A)
Conditions: in vivo, Concentration in Blood, 180 min. (Control)

compound: CC1(C)S[C@@H]2[C@H](NC(=O)[C@H](N)c3ccccc3)C(=O)N2[C@H]1C(=O)O [ampicillin sodium]
units: ng/mL
concentration at 3 h: 500

###

Test: Ampicillin blood level after administration with galenical extract by stomach probe (Experimental method B)
Format: in vivo
Details: rat, in vivo, po, 25 mg/kg, Concentration in Blood, 40 min. (- Control)

molecule: CC1(C)S[C@@H]2[C@H](NC(=O)[C@H](N)c3ccccc3)C(=O)N2[C@H]1C(=O)O [ampicillin sodium]
concentration at 40 min: 1200 ng/mL
